- experimental.target: Neutrophil collagenase (Homo sapiens)
- Sequence (P22894 whole entry): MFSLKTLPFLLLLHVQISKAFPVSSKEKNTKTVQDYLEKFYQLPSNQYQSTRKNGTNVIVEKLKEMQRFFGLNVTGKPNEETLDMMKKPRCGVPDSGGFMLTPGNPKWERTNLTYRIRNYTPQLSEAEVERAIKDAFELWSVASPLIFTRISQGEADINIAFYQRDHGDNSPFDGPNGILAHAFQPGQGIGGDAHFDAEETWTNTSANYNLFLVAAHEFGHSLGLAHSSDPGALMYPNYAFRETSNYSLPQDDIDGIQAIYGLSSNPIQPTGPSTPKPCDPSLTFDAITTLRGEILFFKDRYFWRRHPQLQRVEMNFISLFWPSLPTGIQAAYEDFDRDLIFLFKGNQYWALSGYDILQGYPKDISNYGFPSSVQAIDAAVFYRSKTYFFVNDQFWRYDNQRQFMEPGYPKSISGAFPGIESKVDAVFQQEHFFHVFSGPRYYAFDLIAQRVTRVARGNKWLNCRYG
- assay.overview: Inhibition of MMP8
readout.type: Ki (µM)

INSERT INTO measurements (smiles_string, reported_value) VALUES
  ('CC#CCOc1ccc(S(=O)(=O)N(C)CCS)cc1', 1.3);

====

A short record of pKi observed with Matrilysin (Homo sapiens, UniProt P09237) follows.
Sequence (P09237 whole entry): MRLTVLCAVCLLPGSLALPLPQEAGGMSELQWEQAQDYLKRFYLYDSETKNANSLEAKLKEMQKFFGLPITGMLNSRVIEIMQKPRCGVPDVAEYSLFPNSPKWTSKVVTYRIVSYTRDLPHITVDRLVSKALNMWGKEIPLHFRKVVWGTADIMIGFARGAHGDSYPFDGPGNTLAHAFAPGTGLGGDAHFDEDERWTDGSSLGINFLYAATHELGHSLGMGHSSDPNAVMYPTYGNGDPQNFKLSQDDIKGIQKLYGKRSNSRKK
pKi: −log10 of the molar value.
readout.type: pKi

INSERT INTO assay_data (molecule, readout_type, reported_value) VALUES
  ('CC#CCOc1ccc(S(=O)(=O)N(C)CC(=O)NO)cc1', 'pKi', 5.47),
  ('CC#CCOc1ccc(S(=O)(=O)N2CCCC(S)C2)cc1 (racemic)', 'pKi', '< 5.52'),
  ('CC#CCOc1ccc(S(=O)(=O)N2CC[C@@H](S)C2)cc1', 'pKi', '< 5.22');

====

Ki values recorded for UniProt:P08253
Sequence (P08253 whole entry): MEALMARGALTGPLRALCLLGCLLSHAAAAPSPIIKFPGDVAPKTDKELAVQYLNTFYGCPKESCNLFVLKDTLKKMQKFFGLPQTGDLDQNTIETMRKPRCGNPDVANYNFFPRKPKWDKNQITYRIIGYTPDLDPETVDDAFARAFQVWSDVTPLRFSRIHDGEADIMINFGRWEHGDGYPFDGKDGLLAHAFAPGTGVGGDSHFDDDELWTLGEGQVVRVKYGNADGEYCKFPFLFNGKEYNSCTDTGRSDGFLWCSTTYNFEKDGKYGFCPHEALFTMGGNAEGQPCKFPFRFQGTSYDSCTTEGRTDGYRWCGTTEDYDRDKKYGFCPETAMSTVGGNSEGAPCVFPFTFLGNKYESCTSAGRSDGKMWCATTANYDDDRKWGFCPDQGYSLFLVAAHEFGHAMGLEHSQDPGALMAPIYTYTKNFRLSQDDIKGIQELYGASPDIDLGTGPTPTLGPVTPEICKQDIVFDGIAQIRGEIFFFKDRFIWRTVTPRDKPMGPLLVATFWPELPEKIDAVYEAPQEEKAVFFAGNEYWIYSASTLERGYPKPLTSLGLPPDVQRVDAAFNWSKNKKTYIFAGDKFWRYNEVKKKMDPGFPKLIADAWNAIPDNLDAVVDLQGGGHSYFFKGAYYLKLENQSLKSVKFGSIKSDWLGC
readout.type: Ki (µM)

INSERT INTO assay_data (smiles_string, experimental_target, reported_value) VALUES
  ('CC#CCOc1ccc(S(=O)(=O)N2CC[C@@H](S)C2)cc1', 'UniProt:P08253', 5),
  ('CC#CCOc1ccc(S(=O)(=O)N(C)CCS)cc1', 'UniProt:P08253', 5.7);

====

- experimental.target: Disintegrin and metalloproteinase domain-containing protein 17 (Homo sapiens)
Ki values for the compounds below.
readout.type: Ki (µM)

INSERT INTO measurements (smiles_string, unit_descriptor, reported_value) VALUES
  ('CC#CCOc1ccc(S(=O)(=O)N2CC(S)C2)cc1', 'µM', 0.013),
  ('O=S(=O)(c1ccc(OCC#CCN2CCCCC2)cc1)N1CC[C@@H](S)C1', 'µM', 0.53),
  ('CC#CCNc1ccc(S(=O)(=O)N2CC[C@@H](S)C2)cc1', 'µM', 0.005);

====

- experimental.target: Disintegrin and metalloproteinase domain-containing protein 17 (Homo sapiens, UniProt P78536)
- Sequence (P78536 whole entry, the tested form may be a part): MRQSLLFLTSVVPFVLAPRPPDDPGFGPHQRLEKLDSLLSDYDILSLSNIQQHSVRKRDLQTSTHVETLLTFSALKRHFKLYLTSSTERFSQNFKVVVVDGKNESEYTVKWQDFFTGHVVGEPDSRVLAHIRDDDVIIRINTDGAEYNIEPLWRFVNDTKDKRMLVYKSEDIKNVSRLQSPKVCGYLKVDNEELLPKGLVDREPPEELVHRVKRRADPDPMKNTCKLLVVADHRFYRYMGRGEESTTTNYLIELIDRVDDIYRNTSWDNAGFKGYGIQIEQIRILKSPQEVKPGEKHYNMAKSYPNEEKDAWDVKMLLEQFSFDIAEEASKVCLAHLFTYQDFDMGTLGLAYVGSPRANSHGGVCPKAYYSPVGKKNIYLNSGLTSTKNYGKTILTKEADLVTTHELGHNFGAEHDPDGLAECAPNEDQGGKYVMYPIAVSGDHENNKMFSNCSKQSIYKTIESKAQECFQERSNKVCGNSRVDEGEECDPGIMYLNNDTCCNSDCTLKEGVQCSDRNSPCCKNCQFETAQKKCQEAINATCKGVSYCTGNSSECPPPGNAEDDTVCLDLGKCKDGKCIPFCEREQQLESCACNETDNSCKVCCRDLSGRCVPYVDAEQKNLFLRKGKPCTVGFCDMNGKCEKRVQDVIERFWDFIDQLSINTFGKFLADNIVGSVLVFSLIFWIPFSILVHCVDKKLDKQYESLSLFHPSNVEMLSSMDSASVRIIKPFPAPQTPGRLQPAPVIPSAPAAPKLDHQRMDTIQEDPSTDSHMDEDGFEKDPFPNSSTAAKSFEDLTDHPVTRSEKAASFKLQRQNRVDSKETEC
pKi: −log10 of the molar value.
Recorded pKi by entry
readout.type: pKi

INSERT INTO measurements (compound, readout_type, reported_value) VALUES
  ('CC#CCNc1ccc(S(=O)(=O)N2CC(S)C2)cc1', 'pKi', 7.96),
  ('CC#CCOc1ccc(S(=O)(=O)N2CCCC(S)C2)cc1 (racemic)', 'pKi', 7.26),
  ('CC#CCOc1ccc(S(=O)(=O)N(C)CCS)cc1', 'pKi', 7.28),
  ('CC#CCOc1ccc(S(=O)(=O)N(C)C[C@H](C)S)cc1', 'pKi', 7.57),
  ('CN1CCN(CC#CCOc2ccc(S(=O)(=O)N3CC[C@@H](S)C3)cc2)CC1', 'pKi', 5.47),
  ('CC#CCOc1ccc(S(=O)(=O)N(C)CC(=O)NO)cc1', 'pKi', 8.00);

====

- experimental.target: Matrix metalloproteinase-9 (Homo sapiens)
- Sequence (P14780 whole entry, looked up): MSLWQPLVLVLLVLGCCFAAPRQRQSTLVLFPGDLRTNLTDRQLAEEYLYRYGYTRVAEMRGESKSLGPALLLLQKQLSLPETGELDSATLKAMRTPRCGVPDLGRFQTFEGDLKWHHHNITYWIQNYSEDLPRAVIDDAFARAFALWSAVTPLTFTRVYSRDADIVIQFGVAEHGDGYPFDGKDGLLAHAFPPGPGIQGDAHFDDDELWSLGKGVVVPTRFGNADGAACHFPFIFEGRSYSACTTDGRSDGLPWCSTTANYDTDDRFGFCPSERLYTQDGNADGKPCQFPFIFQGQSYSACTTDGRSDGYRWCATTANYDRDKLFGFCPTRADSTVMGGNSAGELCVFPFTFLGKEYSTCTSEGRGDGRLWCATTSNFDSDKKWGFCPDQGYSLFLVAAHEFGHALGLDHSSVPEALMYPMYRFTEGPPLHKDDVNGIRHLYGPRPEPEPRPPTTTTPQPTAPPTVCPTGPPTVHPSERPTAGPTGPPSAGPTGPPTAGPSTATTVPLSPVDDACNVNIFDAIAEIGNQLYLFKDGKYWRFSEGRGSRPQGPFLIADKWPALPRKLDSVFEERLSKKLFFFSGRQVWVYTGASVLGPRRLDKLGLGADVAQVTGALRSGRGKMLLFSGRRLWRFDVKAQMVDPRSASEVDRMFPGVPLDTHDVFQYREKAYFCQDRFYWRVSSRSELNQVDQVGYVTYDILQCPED
- assay.overview: Inhibition of MMP9
pKi: −log10 of the molar value.
readout.type: pKi

INSERT INTO results (smiles_string, reported_value) VALUES
  ('CC#CCOc1ccc(S(=O)(=O)N(C)CCS)cc1', 6.70);
